- System: LU-139
- method: cells
- Format: functional, cell-based, Homo sapiens
- condition.details: Homo sapiens, LU-139
- Description: SANGER: Inhibition of human LU-139 cell growth in a cell viability assay.
reported.endpoint: IC50

These solved cases illustrate the format of a correct answer.
molecule=CCN(CC)CCCCNc1ncc2cc(-c3cc(OC)cc(OC)c3)c(NC(=O)NC(C)(C)C)nc2n1 reported_endpoint=IC50 reported_result="> 2 µM"
molecule=Oc1ccc2ccccc2c1SSc1c(O)ccc2ccccc12 reported_endpoint=IC50 reported_result="> 32 µM"
molecule=CN(C)C(=N)NC(=N)N reported_endpoint=IC50 reported_result="> 20000 µM"
molecule="COc1cc2ncn(-c3cc(OCc4ccccc4S(C)(=O)=O)c(C#N)s3)c2cc1OC [GSK-319347A]" reported_endpoint=IC50 reported_result="> 5 µM"

Ask | Would you kindly share the measured IC50 for Nc1cccc2c1CN(C1CCC(=O)NC1=O)C2=O (stereo unspecified) [LENALIDOMIDE] ?
Reply | > 5 µM

Ask | Fill in: IC50 of Cc1cn(-c2cc(NC(=O)c3ccc(C)c(Nc4nccc(-c5cccnc5)n4)c3)cc(C(F)(F)F)c2)cn1 is ___
Reply | > 2 µM
